target: Ribosomal protein S6 kinase alpha-2 (Homo sapiens); details: at 10 µM
Please map values of residual activity to classes as shown: lo: < 20%; med: ≥ 20% and < 60%; hi: ≥ 60%

Could you place "NCCNc1ncc(C(N)=O)c(Nc2cccc(C(F)(F)F)c2)n1" in its proper category? Many thanks.
med

Could you place "O=S(=O)(NCCNC/C=C/c1ccc(Br)cc1)c1cccc2cnccc12" in its proper category? Many thanks.
lo

Could you place "Nc1nc(Nc2ccc(S(N)(=O)=O)cc2)nn1C(=O)c1c(F)cccc1F" in its proper category? Many thanks.
lo

Could you place "Nc1nccc(-c2c(-c3ccc(F)cc3)ncn2C2CCNCC2)n1" in its proper category? Many thanks.
med

Could you place "O=C1Nc2ccccc2/C1=C\c1c(Cl)[nH]c2ccccc12" in its proper category? Many thanks.
med

---
Could you place "O=C1NC(=O)C(c2cn(CCCO)c3ncccc23)=C1c1cnccn1" in its proper category? Many thanks.
med

Could you place "COc1cc2ncnc(Nc3cccc(Cl)c3)c2cc1OC" in its proper category? Many thanks.
med

Could you place "CCCCc1c(-c2ccc(O)cc2)[nH]c2nccnc12" in its proper category? Many thanks.
med

====

Measured residual activity values are reported for all entries that follow.
target: Serine/threonine-protein kinase pim-2 (Homo sapiens); details: at 1 µM
Express your answer in %, writing the number without its unit.

Give residual activity for "O=c1c(-c2ccc(F)cc2)c(-c2ccncc2)[nH]n1-c1ccc(Cl)cc1" tested on Serine/threonine-protein kinase pim-2 (Homo sapiens).
128

Give residual activity for "N#C/C(=C1/Nc2ccccc2S1)c1ccnc(NCCc2cccnc2)n1" tested on Serine/threonine-protein kinase pim-2 (Homo sapiens).
33

Give residual activity for "O=C1C(Cl)=C(N2C(=O)CCC2=O)C(=O)c2ccccc21" tested on Serine/threonine-protein kinase pim-2 (Homo sapiens).
131

Give residual activity for "Nc1nccc(-c2c(-c3ccc(F)cc3)ncn2C2CCNCC2)n1" tested on Serine/threonine-protein kinase pim-2 (Homo sapiens).
120

---
Give residual activity for O=C(NC(NC(=S)Nc1ccc(F)c([N+](=O)[O-])c1)C(Cl)(Cl)Cl)C(c1ccccc1)c1ccccc1 (stereo not given) tested on Serine/threonine-protein kinase pim-2 (Homo sapiens).
90

====

Measured residual activity values are reported for all entries that follow.
molecular target: Rho-associated protein kinase 1 (Homo sapiens); settings: at 10 µM
Express your answer in %, writing the number without its unit.

Solved cases below.
Supply reported residual activity belonging to this molecule: "O=C1C(Cl)=C(N2C(=O)CCC2=O)C(=O)c2ccccc21"
88

Supply reported residual activity belonging to this molecule: "Nc1nccc(-c2c(-c3ccc(F)cc3)ncn2C2CCNCC2)n1"
121

Supply reported residual activity belonging to this molecule: "CCCC(=O)Oc1ccc2[nH]c(C(=O)c3cc4ccccc4[nH]3)cc2c1"
128

Supply reported residual activity belonging to this molecule: "Cn1c2ccccc2c2c3c(c4c5ccccc5n(CCC#N)c4c21)CNC3=O"
97

Supply reported residual activity belonging to this molecule: "NCCNc1ncc(C(N)=O)c(Nc2cccc(C(F)(F)F)c2)n1"
103

Supply reported residual activity belonging to this molecule: "O=C(Nc1nc2ccccc2n1CCN1CCOCC1)c1cccc([N+](=O)[O-])c1"
106

Supply reported residual activity belonging to this molecule: "Nc1nc(Nc2ccc(S(N)(=O)=O)cc2)nn1C(=O)c1c(F)cccc1F"
16

Supply reported residual activity belonging to this molecule: "CC(C)[C@H](CO)Nc1nc(Nc2cc(N)cc(Cl)c2)c2ncn(C(C)C)c2n1"
84

---
Supply reported residual activity belonging to this molecule: "O=S(=O)(NCCNC/C=C/c1ccc(Br)cc1)c1cccc2cnccc12"
29

Supply reported residual activity belonging to this molecule: "O=C(CCCc1ccc(-c2ccccc2F)cc1)Nc1ccc(O)cc1"
100

Supply reported residual activity belonging to this molecule: "Oc1cccc(-c2nc(N3CCOCC3)c3oc4ncccc4c3n2)c1"
125

====

biological target: Tyrosine-protein kinase HCK (Homo sapiens) (UniProt P08631); settings: at 1 µM
Sequence (P08631 2-526 limits assumed): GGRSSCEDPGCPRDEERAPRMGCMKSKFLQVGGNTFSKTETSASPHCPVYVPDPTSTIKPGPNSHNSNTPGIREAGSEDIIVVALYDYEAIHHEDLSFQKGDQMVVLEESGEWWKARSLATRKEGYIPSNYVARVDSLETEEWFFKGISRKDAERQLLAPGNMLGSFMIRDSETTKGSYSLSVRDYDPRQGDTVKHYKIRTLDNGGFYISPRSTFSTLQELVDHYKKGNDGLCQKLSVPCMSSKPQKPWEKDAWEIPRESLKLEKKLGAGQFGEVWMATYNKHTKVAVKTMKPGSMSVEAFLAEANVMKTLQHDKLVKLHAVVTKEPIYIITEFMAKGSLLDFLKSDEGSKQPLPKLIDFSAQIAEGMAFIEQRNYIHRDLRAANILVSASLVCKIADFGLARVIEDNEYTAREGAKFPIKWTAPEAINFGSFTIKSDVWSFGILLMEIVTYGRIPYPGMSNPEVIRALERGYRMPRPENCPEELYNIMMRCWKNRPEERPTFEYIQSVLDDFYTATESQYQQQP
measurement.name: residual activity (%)
Express your answer in %, writing the number without its unit.

Solved cases below.
Supply reported residual activity belonging to this compound: "O=c1cc(N2CCNCC2)oc2c(-c3ccccc3)cccc12"
79

Supply reported residual activity belonging to this compound: "CCCC(=O)Oc1ccc2[nH]c(C(=O)c3cc4ccccc4[nH]3)cc2c1"
70

Supply reported residual activity belonging to this compound: "CCOc1nc(NC(=O)Cc2cc(OC)ccc2OC)cc(N)c1C#N"
78

Supply reported residual activity belonging to this compound: "NC(=O)Nc1sc(-c2ccc(F)cc2)cc1C(N)=O"
24

Supply reported residual activity belonging to this compound: "O=C1NC(=O)c2c1c1c3ccccc3[nH]c1n1cncc21"
54

Supply reported residual activity belonging to this compound: "COc1ccc(CNC(=O)Nc2ncc([N+](=O)[O-])s2)cc1"
13

Supply reported residual activity belonging to this compound: "N#Cc1c(NC(=O)c2cccc3ccccc23)sc2c1CCCC2"
63

Supply reported residual activity belonging to this compound: "Fc1ccc(-c2nc3n(c2-c2ccncc2)CCS3)cc1"
95

---
Supply reported residual activity belonging to this compound: "COc1ccc(Cl)cc1NC(=O)Nc1cc(C)nc2ccccc12"
93

Supply reported residual activity belonging to this compound: "Nc1ncnc2[nH]nc(Nc3ccc(F)cc3)c12"
37

Supply reported residual activity belonging to this compound: "COc1ccc2c(c1)c(C1=C(c3c[nH]c4ccccc34)C(=O)NC1=O)cn2CCCN(C)C"
65

Supply reported residual activity belonging to this compound: "COc1ccc(-c2cnc3c(-c4ccsc4)cnn3c2)cc1"
59

Supply reported residual activity belonging to this compound: "CC(C)N(CCC(=O)c1ccc2ccccc2c1)Cc1ccccc1"
79

Supply reported residual activity belonging to this compound: "COc1cc2ncnc(Nc3cccc(Cl)c3)c2cc1OC"
48

Supply reported residual activity belonging to this compound: "CCCCc1c(-c2ccc(O)cc2)[nH]c2nccnc12"
64

Supply reported residual activity belonging to this compound: "Cn1c2ccccc2c2c3c(c4c5ccccc5n(CCC#N)c4c21)CNC3=O"
31

Supply reported residual activity belonging to this compound: "N#C/C(=C\c1ccc(O)c(O)c1)C(=O)NCc1ccccc1"
78

Supply reported residual activity belonging to this compound: "CC(C)(C)c1nc2c3ccc(F)cc3c3c(=O)[nH]ccc3c2[nH]1"
49

Supply reported residual activity belonging to this compound: "COc1cc2c(cc1OC)-c1n[nH]c(Nc3cccc(F)c3)c1C2"
22

Supply reported residual activity belonging to this compound: "O=C1NC(=O)C(c2cn(CCCO)c3ncccc23)=C1c1cnccn1"
66

Supply reported residual activity belonging to this compound: "O=C(c1ccccc1)c1ccc(N2CCOCC2)cc1O"
83

Supply reported residual activity belonging to this compound: "O=C(Nc1ccc(Cl)cc1)c1ccccc1NCc1ccncc1"
80

Supply reported residual activity belonging to this compound: "O=C1Nc2ccccc2/C1=C\c1c(Cl)[nH]c2ccccc12"
79

Supply reported residual activity belonging to this compound: "O=C1Nc2ccc(Cl)cc2/C1=C/c1cc(Cl)c(O)c(Cl)c1"
61

Supply reported residual activity belonging to this compound: "O=C(O)/C=C/c1cc(Br)c(Br)c(Br)c1Br"
59

====

Measured residual activity values are reported for all entries that follow.
target: Focal adhesion kinase 1 (Homo sapiens) (UniProt Q05397); settings: at 10 µM
Sequence (Q05397 2-1052 limits assumed): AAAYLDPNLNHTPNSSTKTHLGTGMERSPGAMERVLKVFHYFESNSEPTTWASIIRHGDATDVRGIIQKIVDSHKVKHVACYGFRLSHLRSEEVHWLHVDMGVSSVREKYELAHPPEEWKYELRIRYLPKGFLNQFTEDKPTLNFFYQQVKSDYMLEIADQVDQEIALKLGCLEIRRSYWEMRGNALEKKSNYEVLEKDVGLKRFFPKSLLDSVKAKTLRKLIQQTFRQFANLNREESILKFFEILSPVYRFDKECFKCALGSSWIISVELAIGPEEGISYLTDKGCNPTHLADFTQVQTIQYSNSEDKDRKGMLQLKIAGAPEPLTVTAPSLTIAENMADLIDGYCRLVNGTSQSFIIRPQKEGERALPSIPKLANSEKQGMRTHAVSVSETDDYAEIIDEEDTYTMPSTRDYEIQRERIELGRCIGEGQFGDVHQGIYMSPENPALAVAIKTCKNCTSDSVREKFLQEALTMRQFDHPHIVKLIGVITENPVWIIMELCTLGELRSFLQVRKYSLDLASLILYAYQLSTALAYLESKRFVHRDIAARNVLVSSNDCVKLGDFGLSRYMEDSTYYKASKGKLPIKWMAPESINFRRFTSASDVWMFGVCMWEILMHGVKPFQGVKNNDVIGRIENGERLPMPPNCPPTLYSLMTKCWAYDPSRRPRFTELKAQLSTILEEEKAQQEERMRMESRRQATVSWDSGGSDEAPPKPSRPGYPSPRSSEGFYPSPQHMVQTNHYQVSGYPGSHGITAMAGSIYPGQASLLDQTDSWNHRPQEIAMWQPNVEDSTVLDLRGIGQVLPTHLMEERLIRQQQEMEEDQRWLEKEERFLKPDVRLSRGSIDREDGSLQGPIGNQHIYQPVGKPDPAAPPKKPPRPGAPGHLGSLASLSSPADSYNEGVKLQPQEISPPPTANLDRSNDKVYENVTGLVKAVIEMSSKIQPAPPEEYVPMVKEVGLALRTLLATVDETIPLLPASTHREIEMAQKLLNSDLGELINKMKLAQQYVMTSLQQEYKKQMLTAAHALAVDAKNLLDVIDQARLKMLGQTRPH
Express your answer in %, writing the number without its unit.

Solved cases below.
Supply reported residual activity belonging to this compound: "CCCC(=O)Oc1ccc2[nH]c(C(=O)c3cc4ccccc4[nH]3)cc2c1"
79

Supply reported residual activity belonging to this compound: "O=C1NC(=O)C(c2c[nH]c3ccccc23)=C1c1c[nH]c2ccccc12"
44

Supply reported residual activity belonging to this compound: "NC(=O)Nc1sc(-c2ccc(F)cc2)cc1C(N)=O"
9

Supply reported residual activity belonging to this compound: "Oc1cccc(-c2nc(N3CCOCC3)c3oc4ncccc4c3n2)c1"
50

Supply reported residual activity belonging to this compound: "CCN(CC)CCNC(=O)c1c(C)[nH]c(/C=C2\C(=O)Nc3ccc(Cl)cc32)c1C"
4

Supply reported residual activity belonging to this compound: "O=C1Nc2ccccc2/C1=C\c1c(Cl)[nH]c2ccccc12"
85

Supply reported residual activity belonging to this compound: "Nc1nc(Nc2ccc(S(N)(=O)=O)cc2)nn1C(=O)c1c(F)cccc1F"
52

Supply reported residual activity belonging to this compound: "COc1cc2nccc(Oc3ccc(NC(=O)Nc4cc(C)on4)c(Cl)c3)c2cc1OC"
35

Supply reported residual activity belonging to this compound: "O=C1NC(=O)c2c1c1c3ccccc3[nH]c1n1cncc21"
25

As a next step, examine the compound that follows.
Supply reported residual activity belonging to this compound: "NC(=O)c1cccc(-c2cc(Nc3ccc(OC(F)(F)F)cc3)ncn2)c1"
95

====

Biological target: Mitogen-activated protein kinase kinase kinase kinase 2 (Homo sapiens)
Sequence (whole entry): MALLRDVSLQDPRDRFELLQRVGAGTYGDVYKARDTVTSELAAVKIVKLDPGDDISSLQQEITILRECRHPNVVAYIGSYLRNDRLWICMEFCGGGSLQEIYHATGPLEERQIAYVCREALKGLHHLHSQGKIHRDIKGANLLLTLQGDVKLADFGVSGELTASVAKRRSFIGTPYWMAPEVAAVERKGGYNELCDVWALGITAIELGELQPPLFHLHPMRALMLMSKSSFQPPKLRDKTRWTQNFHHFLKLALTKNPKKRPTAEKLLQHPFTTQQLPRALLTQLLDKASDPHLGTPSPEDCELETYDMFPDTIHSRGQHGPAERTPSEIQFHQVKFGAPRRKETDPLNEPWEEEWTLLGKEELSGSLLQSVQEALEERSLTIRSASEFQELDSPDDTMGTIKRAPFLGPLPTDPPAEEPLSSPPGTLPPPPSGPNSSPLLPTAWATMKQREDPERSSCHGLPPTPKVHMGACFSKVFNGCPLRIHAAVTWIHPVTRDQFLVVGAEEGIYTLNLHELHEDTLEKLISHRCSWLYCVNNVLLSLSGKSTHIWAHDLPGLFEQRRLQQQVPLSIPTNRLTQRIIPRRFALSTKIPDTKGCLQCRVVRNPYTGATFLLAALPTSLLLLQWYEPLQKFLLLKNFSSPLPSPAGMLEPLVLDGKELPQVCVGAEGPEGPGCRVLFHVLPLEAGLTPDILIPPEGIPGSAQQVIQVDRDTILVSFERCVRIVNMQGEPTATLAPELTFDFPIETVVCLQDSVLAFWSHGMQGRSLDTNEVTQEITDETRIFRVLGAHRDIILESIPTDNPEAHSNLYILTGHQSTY
Details: at 10 µM
residual activity under 60% gets met, anything at or over 60% gets not met.

Previously resolved entries follow.
# check: residual activity < 60% for "Nc1ncnc2[nH]nc(Nc3ccc(F)cc3)c12"
met

# check: residual activity < 60% for "COc1cc2nccc(Oc3ccc(NC(=O)Nc4cc(C)on4)c(Cl)c3)c2cc1OC"
met

# check: residual activity < 60% for "CC(C)(C)c1nc2c3ccc(F)cc3c3c(=O)[nH]ccc3c2[nH]1"
met

---
# check: residual activity < 60% for "O=C1NC(=O)C(c2c[nH]c3ccccc23)=C1c1c[nH]c2ccccc12"
met

# check: residual activity < 60% for "COc1ccc(-c2cnc3c(-c4ccsc4)cnn3c2)cc1"
not met

# check: residual activity < 60% for "CC(C)(C)n1nc(Cc2cccc3ccccc23)c2c(N)ncnc21"
met

# check: residual activity < 60% for "O=C1Nc2ccccc2/C1=C\c1c(Cl)[nH]c2ccccc12"
not met

# check: residual activity < 60% for "COc1cc2nccc(Oc3ccc(NC(=S)NC(=O)c4ccccc4C)cc3)c2cc1OC"
met

# check: residual activity < 60% for "COc1cc2c(cc1OC)-c1n[nH]c(Nc3cccc(F)c3)c1C2"
met

# check: residual activity < 60% for "O=C1NC(=O)C(c2cn(CCCn3ccnc3)c3ccccc23)=C1Nc1ccccc1"
met

# check: residual activity < 60% for "O=C1Cc2c([nH]c3ccc(Br)cc23)-c2ccccc2N1"
met
